Origin of measurements: PubChem BioAssay AID1963420

Listing of recorded viability, T/C by entry.
System: 494315-158-R-J1-PDC complex spheroid growth, percent test/control
assay-info: Anticancer human tumor 494315-158-R-J1-PDC patient-derived soft tissue sarcoma cell line growth inhibition [Asc]
experimental-parameters: second compound 0.316 µM; first compound 10 µM; stronger effect = lower value
Text: Multicellular complex tumor spheroid response to apoptosis pathway targeting inhibitors Alrizomadlin, Pelcitoclax, and Dasminapant in combination with a variety of drugs and investigational agents in selected tumor cell lines […] Compounds. […] If the clinical Cmax for an agent had not been determined, the highest concentration tested was 10 microM. […]
Give just the number in %; leave the unit off.

Solved entries (count: 2):
compound: C#Cc1c(F)ccc2cc(O)cc(-c3ncc4c(N5CC6CCC(C5)N6)nc(OCC56CCCN5CC(F)C6)nc4c3F)c12 (stereo not drawn) + CNC(C)C(=O)NC1CN(S(=O)(=O)c2cccc(S(=O)(=O)N3CCC4CCC(C(=O)NC(c5ccccc5)c5ccccc5)N4C(=O)C(NC(=O)C(C)NC)C3)c2)CCC2CCC(C(=O)NC(c3ccccc3)c3ccccc3)N2C1=O
unit-spec: %
endpoint-result: 69.5
--
compound: O=C(c1cc(Cc2n[nH]c(=O)c3ccccc23)ccc1F)N1CCN(C(=O)C2CC2)CC1 + CNC(C)C(=O)NC1CN(S(=O)(=O)c2cccc(S(=O)(=O)N3CCC4CCC(C(=O)NC(c5ccccc5)c5ccccc5)N4C(=O)C(NC(=O)C(C)NC)C3)c2)CCC2CCC(C(=O)NC(c3ccccc3)c3ccccc3)N2C1=O
unit-spec: %
endpoint-result: 14.3

Read the next record carefully.
Prompt: Which viability, T/C is reported for this compound? C=CC(=O)N1CCN(c2nc(=O)n(-c3c(C)ccnc3C(C)C)c3nc(-c4c(O)cccc4F)c(F)cc23)C(C)C1 (stereo not drawn) + CNC(C)C(=O)NC1CN(S(=O)(=O)c2cccc(S(=O)(=O)N3CCC4CCC(C(=O)NC(c5ccccc5)c5ccccc5)N4C(=O)C(NC(=O)C(C)NC)C3)c2)CCC2CCC(C(=O)NC(c3ccccc3)c3ccccc3)N2C1=O
Completion: 42.2

###

Listing of recorded viability, T/C by entry.
Test system: 494315-158-R-J1-PDC complex spheroid growth, percent test/control
assay-info: Anticancer human tumor 494315-158-R-J1-PDC cell line growth inhibition [Asc];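 further: compound exposure lasted seven days after spheroids formed for three days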
experimental-parameters: second compound 10 µM; first compound 0.1 µM; stronger effect = lower value
Give just the number in %; leave the unit off.

Solved entries (count: 3):
compound: Cn1ncnc1[C@H]1c2n[nH]c(=O)c3cc(F)cc(c23)N[C@@H]1c1ccc(F)cc1 + Cc1c(S(C)(=O)=O)c(-c2cc(F)cc(N3CCN(c4ccc(NS(=O)(=O)c5ccc(NC(CCN6CCC(C(=O)OCCCP(=O)(O)O)CC6)CSc6ccccc6)c(S(=O)(=O)C(F)(F)F)c5)cc4)CC3)c2)c(-c2ccc(Cl)cc2)n1C(C)C
measured-target: 494315-158-R-J1-PDC complex spheroid growth, percent test/control
viability, T/C, %: 45.7

compound: O=C(c1ccc(F)c(F)c1Nc1ccc(I)cc1F)N1CC(O)([C@@H]2CCCCN2)C1 + Cc1c(S(C)(=O)=O)c(-c2cc(F)cc(N3CCN(c4ccc(NS(=O)(=O)c5ccc(NC(CCN6CCC(C(=O)OCCCP(=O)(O)O)CC6)CSc6ccccc6)c(S(=O)(=O)C(F)(F)F)c5)cc4)CC3)c2)c(-c2ccc(Cl)cc2)n1C(C)C
measured-target: 494315-158-R-J1-PDC complex spheroid growth, percent test/control
viability, T/C, %: 79.9

compound: CCN1CCN(Cc2ccc(Nc3ncc(F)c(-c4cc(F)c5nc(C)n(C(C)C)c5c4)n3)nc2)CC1 + Cc1c(S(C)(=O)=O)c(-c2cc(F)cc(N3CCN(c4ccc(NS(=O)(=O)c5ccc(NC(CCN6CCC(C(=O)OCCCP(=O)(O)O)CC6)CSc6ccccc6)c(S(=O)(=O)C(F)(F)F)c5)cc4)CC3)c2)c(-c2ccc(Cl)cc2)n1C(C)C
measured-target: 494315-158-R-J1-PDC complex spheroid growth, percent test/control
viability, T/C, %: 76.7

Read the next record carefully.
Prompt: Which viability, T/C is reported for this compound? C=C(F)C(=O)N1CCN(c2nc(OCC3CCCN3C)nc3c2CCN(c2cccc4cccc(Cl)c24)C3)CC1CC#N (centres undefined) + Cc1c(S(C)(=O)=O)c(-c2cc(F)cc(N3CCN(c4ccc(NS(=O)(=O)c5ccc(NC(CCN6CCC(C(=O)OCCCP(=O)(O)O)CC6)CSc6ccccc6)c(S(=O)(=O)C(F)(F)F)c5)cc4)CC3)c2)c(-c2ccc(Cl)cc2)n1C(C)C
Completion: 78.5
